These data points were gathered from patent US20200317779A1.

# Test Target: recombinant human CD3ε/δ heterodimer (human) (UniProt P07766)
# Sequence (P07766 23-126, stated change not applied, chain 1 of 2): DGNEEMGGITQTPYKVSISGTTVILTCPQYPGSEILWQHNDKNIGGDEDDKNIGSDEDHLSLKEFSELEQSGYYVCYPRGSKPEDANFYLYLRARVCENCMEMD
# Sequence (P04234 22-105, stated change not applied, chain 2 of 2, further chain): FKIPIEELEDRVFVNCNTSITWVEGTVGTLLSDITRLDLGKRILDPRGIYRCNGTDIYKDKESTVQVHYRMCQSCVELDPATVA
# Experiment Summary: BLI (Octet), antigen on anti-Penta His sensor, antibody 50 nM
Endpoint: koff (s⁻¹)
Answer with a number only, understood to be in s⁻¹.

Below, each entry is followed by its recorded koff result.
[[record]]
binder = "Mouse human chimeric SP34 IgG1 antibody (antibody, V domains shown) VH: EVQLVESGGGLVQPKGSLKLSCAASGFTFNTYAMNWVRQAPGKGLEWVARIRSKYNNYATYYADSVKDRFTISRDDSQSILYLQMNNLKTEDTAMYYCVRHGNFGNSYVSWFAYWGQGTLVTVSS VL: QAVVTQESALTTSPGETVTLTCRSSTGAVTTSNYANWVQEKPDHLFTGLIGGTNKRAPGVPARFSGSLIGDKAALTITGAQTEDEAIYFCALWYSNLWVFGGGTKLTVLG"
endpoint = "koff"
reported = "6.01e-05"

[[record]]
binder = "D07 (antibody, human IgG1, lambda, L234A L235A, V domains shown) VH: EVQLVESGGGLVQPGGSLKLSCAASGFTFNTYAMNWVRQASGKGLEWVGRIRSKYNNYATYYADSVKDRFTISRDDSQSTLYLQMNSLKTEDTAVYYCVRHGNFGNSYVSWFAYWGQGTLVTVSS VL: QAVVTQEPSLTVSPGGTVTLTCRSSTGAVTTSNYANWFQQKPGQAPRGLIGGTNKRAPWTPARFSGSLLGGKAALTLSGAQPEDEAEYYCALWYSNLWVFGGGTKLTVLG"
endpoint = "koff"
reported = 0.00214


Lab note: next binder to report on.
Task item: Any idea what its koff is? The binder is B16 (antibody, human IgG1, lambda, L234A L235A, V domains shown) VH: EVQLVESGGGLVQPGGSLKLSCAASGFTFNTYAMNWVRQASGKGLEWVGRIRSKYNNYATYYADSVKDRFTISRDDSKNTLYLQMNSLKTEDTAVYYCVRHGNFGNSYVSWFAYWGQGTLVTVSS VL: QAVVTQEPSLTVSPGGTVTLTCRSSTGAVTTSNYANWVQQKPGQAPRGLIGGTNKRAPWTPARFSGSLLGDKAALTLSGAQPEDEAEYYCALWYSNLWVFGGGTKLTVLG
Reply: 0.000144
